tested on: 388556-164-R-J1-PDC complex spheroid viability; assay: Anticancer human tumor 388556-164-R-J1-PDC patient-derived colon adenocarcinoma cell line growth inhibition [RAS]; conditions: second compound 0.0316 µM; first compound 0.316 µM; hits give low values;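 further: spheroids exposed to compound for 7 days before readout; 100% = DMSO vehicle control luminescence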
Friendly reminder: viability, T/C below 80% is yes (1), at or above is no (0).

Determine if NC1c2ccccc2OC12CCN(c1cnc3c(N4CCCc5ncccc54)n[nH]c3n1)CC2 (stereo not given) + C#Cc1c(F)ccc2cc(O)cc(-c3ncc4c(N5CC6CCC(C5)N6)nc(OCC56CCCN5CC(F)C6)nc4c3F)c12 shows viability, T/C strictly lower than 80%.
yes (1)

Lab note: viability, T/C threshold 80%. Does this molecule come in strictly under it? CC(C)NCC(C(=O)N1CCN(c2ncnc3c2C(C)CC3O)CC1)c1ccc(Cl)cc1 (stereo not given) + C#Cc1c(F)ccc2cc(O)cc(-c3ncc4c(N5CC6CCC(C5)N6)nc(OCC56CCCN5CC(F)C6)nc4c3F)c12
no (0)

Please check: viability, T/C for C[C@@H](NC(=O)c1ncnc(N)c1Cl)c1ncc(C(=O)Nc2cc(C(F)(F)F)c(Cl)cn2)s1 + C#Cc1c(F)ccc2cc(O)cc(-c3ncc4c(N5CC6CCC(C5)N6)nc(OCC56CCCN5CC(F)C6)nc4c3F)c12 , strictly under 80% or not?
no (0)

Hello, I'm reviewing records and need to know if viability, T/C of O=C(c1ccc(F)c(F)c1Nc1ccc(I)cc1F)N1CC(O)([C@@H]2CCCCN2)C1 + C#Cc1c(F)ccc2cc(O)cc(-c3ncc4c(N5CC6CCC(C5)N6)nc(OCC56CCCN5CC(F)C6)nc4c3F)c12 is below 80%. Could you check?
yes (1)

Lab note: confirm whether the reported viability, T/C for this molecule is below 80%, equality not counting. molecule: Nc1ccn(C2OC(CO)C(O)C2(F)F)c(=O)n1 (stereo not given) + C=CC(=O)N1CCN(c2nc(OCC3CCCN3C)nc3c(F)c(-c4nc(N)cc(C)c4C(F)(F)F)c(Cl)cc23)C(C)C1
yes (1)

viability, T/C under 80%? Item: Nc1ccn(C2OC(CO)C(O)C2(F)F)c(=O)n1 (stereo not given) + C#Cc1c(F)ccc2cc(O)cc(-c3ncc4c(N5CC6CCC(C5)N6)nc(OCC56CCCN5CC(F)C6)nc4c3F)c12
yes (1)

Is viability, T/C strictly under 80% for the entry CC(Nc1ccc2c(c1)OCCn1cc(N3C(=O)OCC3C(F)F)nc1-2)C(N)=O (stereo not given) + C=CC(=O)N1CCN(c2nc(OCC3CCCN3C)nc3c(F)c(-c4nc(N)cc(C)c4C(F)(F)F)c(Cl)cc23)C(C)C1 ?
no (0)

Is 80% strictly greater than the molecule's reported viability, T/C? molecule: O=C(c1ccc(F)c(F)c1Nc1ccc(I)cc1F)N1CC(O)([C@@H]2CCCCN2)C1 + C=CC(=O)N1CCN(c2nc(OCC3CCCN3C)nc3c(F)c(-c4nc(N)cc(C)c4C(F)(F)F)c(Cl)cc23)C(C)C1
yes (1)

Does this molecule meet the criterion viability, T/C < 80%? CCC(CC)c1cc(NC2CCC(N)C2)n2nccc2n1 (stereo not given) + C=CC(=O)N1CCN(c2nc(OCC3CCCN3C)nc3c(F)c(-c4nc(N)cc(C)c4C(F)(F)F)c(Cl)cc23)C(C)C1
no (0)

This collection of values is drawn from PubChem BioAssay AID2060907.
